TARGET OR SYSTEM: Δ^1–28 L-PGDS (Homo sapiens)
Sequence (P41222 29-190): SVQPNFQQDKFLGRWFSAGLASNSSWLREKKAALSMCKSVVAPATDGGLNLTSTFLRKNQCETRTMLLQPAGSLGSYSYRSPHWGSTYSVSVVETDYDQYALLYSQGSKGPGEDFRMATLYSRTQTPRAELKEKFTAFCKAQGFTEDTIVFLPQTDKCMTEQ
EXPERIMENT DESCRIPTION: Fluorescence displacement binding assay
PROTOCOL CONDITIONS: DAUDA (500 nM) displacement, L-PGDS 3 μM, pH 7.6, 25 °C; mean ± SE
MEASURE NAME: pKi
Here pKi is given on a logarithmic scale as minus log10 of the concentration in mol/L.

Known results for compounds:
CCCCCc1cc(O)c2c(c1)OC(C)(C)[C@@H]1CCC(C(=O)O)=C[C@@H]21 : 5.11
O=C(O)C1[C@H](c2ccccc2)C(C(=O)Oc2cccc3ccccc23)[C@H]1c1ccccc1 (stereo partly shown) : 5.52

// lookup pKi for CCCCCc1cc(O)c2c(c1)OC(C)(C)[C@@H]1CCC(C)=C[C@@H]21 [THC, Δ^9-tetrahydrocannabinol]
3.76

----------
TARGET OR SYSTEM: Δ^1–28 L-PGDS (Homo sapiens, UniProt P41222)
EXPERIMENT DESCRIPTION: Fluorescence displacement binding assay
PROTOCOL CONDITIONS: DAUDA probe
MEASURE NAME: Binding to Δ^1–28 L-PGDS, DAUDA displacement

CCCCC/C=C\C/C=C\C/C=C\C/C=C\CCCC(=O)NCCO : did not bind
CCCCC/C=C\C/C=C\C/C=C\C/C=C\CCCC(=O)OC(CO)CO : did not bind

----------
TARGET OR SYSTEM: Δ^1–28 L-PGDS (Homo sapiens)
EXPERIMENT DESCRIPTION: Intrinsic tryptophan fluorescence quenching assay
Format: binding
PROTOCOL CONDITIONS: compound 20 μM, L-PGDS 1.5 μM, pH 8.0; mean ± SE
MEASURE NAME: Quenching (%), fluorescence reduction relative to vehicle-treated Δ^1–28 L-PGDS
Give the value, in units of %, as a plain number.

Known results for compounds:
CCCCC[C@H](O)/C=C/[C@@H]1[C@@H](C/C=C\CCCC(=O)O)[C@@H](O)C[C@H]1O [PGF2α, prostaglandin F2α] : 2.7
O=C(O)C1[C@H](c2ccccc2)C(C(=O)Oc2cccc3ccccc23)[C@H]1c1ccccc1 (stereo partly shown) [SBFI-26] : 33.3
CCCCCc1cc(O)c2c(c1)OC(C)(C)[C@@H]1CCC(C(=O)O)=C[C@@H]21 [THC-COOH] : 15.6

// lookup Quenching (%), fluorescence reduction relative to vehicle-treated Δ^1–28 L-PGDS for CCCCCCCC/C=C\CCCCCCCC(=O)O [OLA, oleic acid]
15.1

----------
TARGET OR SYSTEM: Δ^1–28 L-PGDS (Homo sapiens, UniProt P41222)
EXPERIMENT DESCRIPTION: Fluorescence displacement binding assay
PROTOCOL CONDITIONS: Ki, DAUDA (500 nM) displacement, L-PGDS 3 μM, pH 7.6, 25 °C; mean ± SE
Quick reference for Ki among some compounds

CCCCC[C@H](O)/C=C/[C@@H]1[C@@H](C/C=C\CCCC(=O)O)[C@@H](O)C[C@H]1O [PGF2α, prostaglandin F2α] : 81 µM

// lookup Ki for CCCCCCCC/C=C\CCCCCCCC(N)=O [Oleamide]
> 200 µM

// lookup Ki for CCCCC/C=C\C/C=C\C/C=C\C/C=C\CCCC(=O)OC(CO)CO [2-AG, 2-arachidonoylglycerol]
> 200 µM

// lookup Ki for C=C(C)[C@@H]1CCC(C)=C[C@H]1c1c(O)cc(CCCCC)cc1O [CBD, cannabidiol]
77.9 µM
